Tested on: Metabolism protein genes
Test details: DNA chip mRNA expression in yeast, metabolism protein genes (Table 7)
Type: cell-based, Saccharomyces cerevisiae S288C
Measurement setup: yeast gene YER120W
Readout kind: level of expressed mRNA in the presence/in the absence of chemical substance

1. O=[N+]([O-])c1cc[n+]([O-])c2ccccc12 [(5), 4-nitroquinolin-N-oxide]; 0.8
2. [Cl][Pb][Cl]; 0.8
3. S=C([S-])NCCNC(=S)[S-].[Zn+2] [(11), zinc N,N′-ethylenebis(dithiocarbamate)]; 1.1
4. Oc1cc(Cl)c(Cl)cc1Cl; 1.5
5. COc1cc(CNC(=O)CCCCC=CC(C)C)ccc1O [(12), 8-methyl-N-vanillyl-6-nonenamide]; 1.3
6. CCCCCCCCCCCCOS(=O)(=O)[O-].[Na+] [(18), sodium lauryl sulfate]; 1.0
7. Cl[C@H]1[C@H](Cl)[C@@H](Cl)[C@@H](Cl)[C@H](Cl)[C@H]1Cl; 0.9

---

The compounds listed here are annotated with their level of expressed mRNA in the presence/in the absence of chemical substance.
Tested on: Metabolism protein genes
Test details: DNA chip mRNA expression in yeast, metabolism protein genes (Table 7)
Type: cell-based, Saccharomyces cerevisiae S288C
Measurement setup: yeast gene YEL063C
Readout kind: level of expressed mRNA in the presence/in the absence of chemical substance

1) [Cl][Cd][Cl] [(2), CdCl2]; 0.8
2) N#Cc1c(Cl)c(Cl)c(Cl)c(C#N)c1Cl [(9)]; 0.8
3) CCCCC[C@H](O)CC(=O)CCc1ccc(O)c(OC)c1 [(13), gingerol]; 1.1
4) [Cl][Pb][Cl] [(4), PbCl2]; 1.3

---

Test system: Metabolism protein genes
Test details: DNA chip mRNA expression in yeast, metabolism protein genes (Table 7)
Assay type: cell-based, Saccharomyces cerevisiae S288C
Measurement setup: yeast gene YGR204W
Reported values of level of expressed mRNA in the presence/in the absence of chemical substance for individual entries
Readout kind: level of expressed mRNA in the presence/in the absence of chemical substance

1) N#Cc1c(Cl)c(Cl)c(Cl)c(C#N)c1Cl [(9)]; 0.9
2) CN(C)C(=S)SSC(=S)N(C)C [(10), Tetramethylthiuram disulfide]; 2.3
3) CCCCCCCCCCCCOS(=O)(=O)[O-].[Na+] [(18), sodium lauryl sulfate]; 0.7
4) [Cl][Hg][Cl] [(3), HgCl2]; 2.7
5) COc1cc(CNC(=O)CCCCC=CC(C)C)ccc1O [(12), 8-methyl-N-vanillyl-6-nonenamide]; 1.0
6) Cl[C@H]1[C@H](Cl)[C@@H](Cl)[C@@H](Cl)[C@H](Cl)[C@H]1Cl [(7), γ-hexachlorocyclohexane]; 0.8

---

Test system: Metabolism protein genes
Test details: DNA chip mRNA expression in yeast, metabolism protein genes (Table 7)
Format: cell-based, Saccharomyces cerevisiae S288C
Measurement setup: yeast gene YDR284C
Rule: level of expressed mRNA in the presence/in the absence of chemical substance of 1 or more gives class 1; anything lower gives class 0.

1. Oc1cc(Cl)c(Cl)cc1Cl [(6), 2,4,5-trichlorophenol]; class 1
2. Cl[C@H]1[C@H](Cl)[C@@H](Cl)[C@@H](Cl)[C@H](Cl)[C@H]1Cl [(7), γ-hexachlorocyclohexane]; class 1
3. COc1cc(CNC(=O)CCCCC=CC(C)C)ccc1O [(12), 8-methyl-N-vanillyl-6-nonenamide]; class 0
4. CCCCCCCCCCCCc1ccc(S(=O)(=O)[O-])cc1.[Na+] [(17), sodium dodecylbenzosulfonate]; class 1

---

Test system: Metabolism protein genes
Test details: DNA chip mRNA expression in yeast, metabolism protein genes (Table 7)
Format: cell-based, Saccharomyces cerevisiae S288C
Measurement setup: yeast gene YOL156W
Readout kind: level of expressed mRNA in the presence/in the absence of chemical substance

1. CN(C)C(=S)SSC(=S)N(C)C [(10), Tetramethylthiuram disulfide]; 2.1
2. C[S+](C)[O-] [(15), dimethylsulfoxide]; 1.9
3. S=C([S-])NCCNC(=S)[S-].[Zn+2] [(11), zinc N,N′-ethylenebis(dithiocarbamate)]; 1.1
4. Oc1cc(Cl)c(Cl)cc1Cl; 1.2
